System: HEPG2
Test: Euclidean distance of Cell Painting phenotypic profile (signed KS, 77 features) to DMSO centroid (dimensionless distance); 5 or 10 uM (library dependent); higher = stronger phenotypic change vs DMSO (phenoactivity)
Details: 48 h
EXPERIMENTAL_ENDPOINT: Euclidean distance
A bare number is all that is needed in reply.

CC(=O)N1C[C@H](O)C[C@H]1C(=O)O | 0.812
C[N+]1(C)[C@@H]2C[C@@H](OC(=O)C(O)(c3cccs3)c3cccs3)C[C@H]1[C@@H]1O[C@@H]12 [Tiotropium Bromide hydrate] | 0.978
Cn1cc(-c2ccc3nnc(Sc4ccc5ncccc5c4)n3n2)cn1 | 0.766

Consider the additional compound presented here.
Exercise: What value of measured Euclidean distance is listed for O=C(Oc1ccccc1C(=O)O)c1ccccc1O ?
Solution: 0.413

###

Test system: OVCAR4
Assay: Euclidean distance of Cell Painting phenotypic profile (signed KS, 77 features) to DMSO centroid (dimensionless distance); 5 or 10 uM (library dependent); higher = stronger phenotypic change vs DMSO (phenoactivity)
Conditions: 48 h
Where a name gives a salt, the structure may show the parent alone.
// values below are reported Euclidean distance
A bare number is all that is needed in reply.

Exercise: What value of measured Euclidean distance is listed for COc1ccnc(C[S+]([O-])c2nc3cc(-n4cccc4)ccc3[nH]2)c1C (centres undefined) [Ilaprazole sodium] ?
Solution: 1.26

Exercise: Please answer likewise for CCN(CC)C(=O)C1(c2ccccc2)CC1CN (centres undefined) [Milnacipran HCl]
Solution: 0.854

Exercise: Please answer likewise for Cc1cc(Cl)ccc1OCCCC(=O)NO
Solution: 0.782

Exercise: Please answer likewise for CC(=O)OCC(=O)[C@@]12N=C(C)O[C@@H]1C[C@H]1[C@@H]3CCC4=CC(=O)C=C[C@]4(C)[C@H]3[C@@H](O)C[C@@]12C
Solution: 1.7

Exercise: Please answer likewise for CCC(C)(Oc1ccc(C2(c3ccc(OC(C)(CC)C(=O)O)cc3)CCCCC2)cc1)C(=O)O (centres undefined) [Clinofibrate]
Solution: 1.33

Exercise: Please answer likewise for Cc1cc(NS(=O)(=O)c2ccc(N)cc2)no1 [Sulfamethoxazole sodium]
Solution: 1.28

Exercise: Please answer likewise for O=C(O)Cc1ccccc1Nc1c(Cl)cccc1Cl [Diclofenac Diethylamine]
Solution: 0.97

Exercise: Please answer likewise for COc1ccc(CN2C3CC2CN(c2ccc(-c4cc(OCC(C)(C)O)cn5ncc(C#N)c45)cn2)C3)cn1
Solution: 1.15

Exercise: Please answer likewise for CN(C)CCN(Cc1ccc(Cl)cc1)c1ccccn1 [Chloropyramine hydrochloride]
Solution: 1.1

###

Test system: FB
Assay: Euclidean distance of Cell Painting phenotypic profile (signed KS, 77 features) to DMSO centroid (dimensionless distance); 5 or 10 uM (library dependent); higher = stronger phenotypic change vs DMSO (phenoactivity)
Conditions: 48 h
Counter-ions that a name gives are not always drawn.
EXPERIMENTAL_ENDPOINT: Euclidean distance
A bare number is all that is needed in reply.

CCC[C@H](N[C@H]1CCc2cc(F)cc(F)c2C1)C(=O)Nc1cn(C(C)(C)CNCC(C)(C)C)cn1 | 0.705
COc1cc2c(cc1OC)[C@@H]1Cc3ccc(OC)c(OC)c3CN1CC2 [Tetrahydropalmatine] | 0.696
C[C@H]1O[C@@H](O[C@H]2[C@@H](O)C[C@H](O[C@H]3[C@@H](O)C[C@H](O[C@H]4CC[C@@]5(C)[C@H](CC[C@@H]6[C@@H]5C[C@@H](O)[C@]5(C)[C@@H](C7=CC(=O)OC7)CC[C@]65O)C4)O[C@@H]3C)O[C@@H]2C)C[C@H](O)[C@@H]1O [Digoxin] | 4.48
CCN(CC)CCOC(=O)c1ccc(N)cc1 [Procaine] | 1.08
CC(C)c1cc(C(C)C)c(CC(=O)NS(=O)(=O)Oc2c(C(C)C)cccc2C(C)C)c(C(C)C)c1 [Avasimibe] | 0.86

Exercise: What value of measured Euclidean distance is listed for Cc1ccc([C@@H]2O[C@H](CO)[C@@H](O)[C@H](O)[C@H]2O)cc1Cc1ccc(-c2ccc(F)cc2)s1 [Canagliflozin] ?
Solution: 1.12

Exercise: Please answer likewise for Nc1ccc(C(=O)Nc2cccc(-c3nc(N4CCOCC4)c4oc5ncccc5c4n3)c2)cn1
Solution: 1.63

Exercise: Please answer likewise for C#Cc1cccc(Nc2ncnc3cc(OCCOC)c(OCCOC)cc23)c1 [Erlotinib HCl (OSI-744)]
Solution: 1.57

Exercise: Please answer likewise for COC(=O)/C=C/C(=O)OCCN1C(=O)CCC1=O [Diroximel Fumarete]
Solution: 1.24

Exercise: Please answer likewise for CNCCCN1c2ccccc2CCc2ccccc21 [Desipramine Hydrochloride]
Solution: 1.73

Exercise: Please answer likewise for CCC(=O)OCC(=O)[C@@]1(OC(=O)CC)[C@@H](C)C[C@H]2[C@@H]3CCC4=CC(=O)C=C[C@]4(C)[C@@]3(Cl)[C@@H](O)C[C@@]21C [Beclomethasone dipropionate]
Solution: 1.95

Exercise: Please answer likewise for Cn1c(=O)c2[nH]c(Br)nc2n(C)c1=O [Pamabrom]
Solution: 1.18

Exercise: Please answer likewise for COc1cc(NS(=O)(=O)c2ccc(N)cc2)nc(OC)n1 [Sulphadimethoxine]
Solution: 1.62

Reference source for all entries: the supplement of paper PMC10127200
